Could you please report measured T. cruzi SI for the items listed next?
test system: T. cruzi; assay: In vitro growth inhibition of T. cruzi intracellular amastigotes grown in L6 rat myoblasts; type: cell-based, Trypanosoma cruzi; settings: Table 4, pure compounds
Format: numeric value only, no unit, no commentary.

Reported T. cruzi SI of O=c1cc(-c2ccc(O)c(O)c2)oc2c(O)c(O[C@@H]3O[C@H](CO)[C@@H](O)[C@H](O)[C@H]3O)cc(O)c12 [Hypolaetin-7-O-glucoside (7), hypolaetin-7-O-glucoside] : 0.4

Reported T. cruzi SI of CCOC(=O)c1cc(O)c(O)c(O)c1 [Ethyl gallate (4), ethyl gallate] : 0.9

Reported T. cruzi SI of CC/C=C\C/C=C\C/C=C\CCCCCCCc1cc(O)cc(O)c1 [Resorcinol-alkyl (8)] : 1.4
